B1: Zinc finger homeobox protein 4, residues 2562 to 2617; numbered along this chain, Q86UP3 (parent)
chain: RLRTTITPEQLEILYEKYLLDSNPTRKMLDHIAREVGLKKRVVQVWFQNTRARERK

# Variants of: B1
# Protocol Description: abundance fitness (aPCA) (normalised: wild type 0, dead -1); higher = more abundant; growth selection in yeast, the domain comes from the species named
# Recorded Conditions: Homo sapiens
Reported abundance fitness values for a set of variants

{"columns": ["Seq String", "abundance fitness"],
 "data": [
  ["RLRTTITPEQLEILYEKYLLDSNPTRKMLDFIAREVGLKKRVVQVWFQNTRARERK [H31F]", -0.266],
  ["RLRTTITPEQLEILYEKYLLDSNPTRKMLDHIAREVGLKKTVVQVWFQNTRARERK [R41T]", 0.213],
  ["RLRTTITPEQLEILYEKYLLDSNPTRYMLDHIAREVGLKKRVVQVWFQNTRARERK [K27Y]", -0.142],
  ["RLRTTITPEQLEILYEKYLLDCNPTRKMLDHIAREVGLKKRVVQVWFQNTRARERK [S22C]", -0.075],
  ["RLRTTITPEQLEILYEKYLLDSNPTRKMLDHIADEVGLKKRVVQVWFQNTRARERK [R34D]", -0.536],
  ["RLRTTITPEQLEILYEKFLLDSNPTRKMLDHIAREVGLKKRVVQVWFQNTRARERK [Y18F]", 0.425],
  ["RLRTTITPEQLEILYEKYLLDTNPTRKMLDHIAREVGLKKRVVQVWFQNTRARERK [S22T]", -0.078],
  ["RLRTTITPEQLEILYEKYLLDSNPTRKMLDHIAREVGPKKRVVQVWFQNTRARERK [L38P]", -0.787],
  ["RLRTTITPEQLEILYEKYLLDSNPTRKMLDHIAREVSLKKRVVQVWFQNTRARERK [G37S]", -0.359],
  ["RLRTTITPEQLEILYEKYLLDENPTRKMLDHIAREVGLKKRVVQVWFQNTRARERK [S22E]", 0.248],
  ["RLRTTITPEQLEILYEKYLLDSNPNRKMLDHIAREVGLKKRVVQVWFQNTRARERK [T25N]", -0.148]
]}
